tested on: SK-MEL-2; assay: NCI tumour cell line growth inhibition, 48 h
Activity calls are given as the source filed them. Rule as the data show it: active = GI50 up to about 1.1 µM and inactive = higher.
The categories you may choose from are active, inactive

Check the results log: what was the call for O=C1C=Cc2c(Br)sc(Br)c21 ?
inactive

Give the logged outcome of this assay for the following compound: O=C1CCCc2cc3c(cc21)CC1(C3)Cc2ccc3c(c2C1)C(=O)CCC3 (stereo unspecified)
inactive

Called result for CCCC#CCOC(=O)c1cc([N+](=O)[O-])cc([N+](=O)[O-])c1
inactive

Query: recorded result category for COC(=O)C1Cc2c(C)cccc2C1=O (stereo unspecified) in this test
inactive

====

// reported GI50 per item
tested on: MOLT-4; assay: NCI tumour cell line growth inhibition, 48 h
The source made the active and inactive calls. Cut-off read from the data, not from the text of the source: active = GI50 up to about 1.1 µM and inactive = higher.

- Compound: "CCOC(=O)c1c(N=C(S)Nc2ccccc2)sc2c1CCN(C)C2"
  Reported metric: "GI50"
  Measured result: "> 100 µM (inactive)"
- Compound: "CCOC(=O)c1nc2cc(C(F)(F)F)ccc2nc1Nc1ccc(OC)cc1"
  Reported metric: "GI50"
  Measured result: "> 100 µM (inactive)"
- Compound: "CC1CN=C(N(C(=O)Nc2ccccc2)C2CCCCC2)S1 (stereo unspecified)"
  Reported metric: "GI50"
  Measured result: "16.7 µM (inactive)"
- Compound: "CC1(C)CC(=O)C(=CNC(=S)c2ccccc2)C(=O)C1"
  Reported metric: "GI50"
  Measured result: "13.6 µM (inactive)"
- Compound: "CC(=O)NCCC1CN(C(=O)/C=C/I)c2ccccc21 (stereo unspecified)"
  Reported metric: "GI50"
  Measured result: "3.79 µM (inactive)"
- Compound: "CCOC(=O)C1=C(N2CCCC2)C(=O)C(C(=O)OCC)C1 (stereo unspecified)"
  Reported metric: "GI50"
  Measured result: "> 100 µM (inactive)"
- Compound: "Cc1cc(=O)n(-c2ccccc2C)c(C)n1"
  Reported metric: "GI50"
  Measured result: "> 100 µM (inactive)"
- Compound: "CCCCCC(O)[C@H]1C(=O)C[C@@H](O[Si](C)(C)C(C)(C)C)[C@@H]1/C=C/CCOCc1ccccc1 (stereo partly specified)"
  Reported metric: "GI50"
  Measured result: "4.46 µM (inactive)"
- Compound: "COc1ccc2nc3c([N+](=O)[O-])ccc4c3c(c2c1)N=CN4CCN(C)C"
  Reported metric: "GI50"
  Measured result: "2.04 µM (inactive)"
- Compound: "Cc1ccc(Nc2c(C#N)[n+]([O-])c3cc(Cl)ccc3[n+]2[O-])cc1"
  Reported metric: "GI50"
  Measured result: "4.8 µM (inactive)"

Which GI50 is listed for Cc1ccc(C2(c3ccc(C)c(O)c3C)CCN(C)CC2)c(C)c1O ?
> 100 µM (inactive)
